# TESTED TARGET: human mAChR M4 (Homo sapiens)
# Construct: expressed in transfected cells; host or cells: CHO-K1 (ATCC), stably expressing hM4 and Gqi5
# Sequence (P08173 1-479): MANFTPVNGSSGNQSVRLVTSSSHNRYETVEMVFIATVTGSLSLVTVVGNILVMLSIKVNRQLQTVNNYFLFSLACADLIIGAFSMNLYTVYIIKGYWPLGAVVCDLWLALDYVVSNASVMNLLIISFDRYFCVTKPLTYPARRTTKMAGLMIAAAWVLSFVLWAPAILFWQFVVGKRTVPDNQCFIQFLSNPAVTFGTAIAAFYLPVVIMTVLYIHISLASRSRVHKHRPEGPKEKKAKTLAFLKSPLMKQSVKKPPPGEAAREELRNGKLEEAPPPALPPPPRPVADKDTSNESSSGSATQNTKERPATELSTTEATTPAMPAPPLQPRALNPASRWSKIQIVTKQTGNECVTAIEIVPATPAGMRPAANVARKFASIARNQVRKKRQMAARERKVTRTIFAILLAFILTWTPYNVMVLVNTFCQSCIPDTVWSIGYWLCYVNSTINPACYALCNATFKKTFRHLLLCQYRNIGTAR
# ASSAY SUMMARY: mAChR M4 cell-based functional assay: calcium flux (Fluo-4, FDSS), positive allosteric modulator activity on the EC20 acetylcholine response, hM4-Gqi5 CHO-K1 cells
# MEASUREMENT CONTEXT: human M4; PAM activity on EC20 acetylcholine response, calcium flux; read-out: Human M4 EC50
PROPERTY MEASURED: EC50 (nM)

Examples from the recorded data:
Supply reported EC50 belonging to this molecule: Clc1ccc2nc(Cl)nc(N3CCc4ncc(Br)cc4C3)c2c1 170

Supply reported EC50 belonging to this molecule: COc1ccc2ncnc(N3CCc4ncc(Nc5cccnc5F)cc4C3)c2c1 460

Supply reported EC50 belonging to this molecule: COc1nc(N2CCc3ncc(C(F)(F)F)cc3C2)c2cc(C)ccc2n1 340

Supply reported EC50 belonging to this molecule: Cc1nc(N2CCc3ncc(-c4cnn(C)c4)cc3C2)c2cc(Cl)ccc2n1 170

Supply reported EC50 belonging to this molecule: CN1CCN(c2cnc3c(c2)CN(c2ncnc4cc(F)c(F)cc24)CC3)CC12COC2 500

Supply reported EC50 belonging to this molecule: C[C@H]1CN(c2ncnc3cc(F)c(F)cc23)Cc2cc(N3CCOCC3)cnc21 440

Supply reported EC50 belonging to this molecule: Cc1nc(N2CCc3ncc(-c4c(C)noc4C)cc3C2)c2cc(Cl)ccc2n1 140

Supply reported EC50 belonging to this molecule: CN1CCN(c2cnc3c(c2)CN(c2ncnc4cc(F)c(F)cc24)CC3)CC1=O 880

1 = C[C@@H]1CCN(c2cnc3c(c2)CN(c2ncnc4ccc(F)cc24)CC3)c2ccnn21
2 = Cc1ccc2nc(C)nc(N3CCc4ncc(N5CCOc6ncccc65)cc4C3)c2c1
3 = COc1ccc2ncnc(N3CCc4ncc(C(F)(F)F)cc4C3)c2c1
4 = Fc1ccc2ncnc(N3CCc4ncc(N5CCCn6nc(C(F)(F)F)cc65)cc4C3)c2c1
5 = Cc1ccc2nc(C)nc(N3CCc4ncc(-c5cc(F)ccc5C)cc4C3)c2c1
Sort by EC50, descending. When ranking, write the labels in the order the request describes. 5, 4, 3, 2, 1

I = Cc1nc(N2CCc3ncc(C(F)(F)F)cc3C2)c2cc(Cl)ccc2n1
II = CC(C)(O)CNc1nc(N2CCc3ncc(N4CCCn5nccc54)cc3C2)c2cccnc2n1
Which of the two gives a bigger number for EC50: I or II ? # answer = label of selected item II
(II: 370 nM, I: 90 nM)
